Target: T1, human BCMA (human, UniProt Q02223 1-54)
T1 construct: also called huBCMA; hBCMA
T1 sequence: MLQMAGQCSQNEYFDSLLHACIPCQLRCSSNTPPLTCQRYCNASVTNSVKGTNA
Test: SPR, immobilised IgG, 37° C
Recorded endpoint: T½ (min)
Give just the number in min; leave the unit off.

Per the record, L3.PY/L1.AH/H2.QL (antibody, V domains shown, IgG in the assay) VH: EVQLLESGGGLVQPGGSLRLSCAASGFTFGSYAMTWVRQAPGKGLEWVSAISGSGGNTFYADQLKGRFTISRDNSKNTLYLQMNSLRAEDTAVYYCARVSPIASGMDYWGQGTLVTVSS VL: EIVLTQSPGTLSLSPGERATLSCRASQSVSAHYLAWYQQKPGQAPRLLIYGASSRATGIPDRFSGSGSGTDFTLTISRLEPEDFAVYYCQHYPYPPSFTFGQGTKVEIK has T½ of 7.22
